Each recorded value in this set is attributed to patent US8299056B2.

molecular target: Syk (Homo sapiens, UniProt P43405); construct: purchased Carna Biosciences; experiment: Syk HTRF assay; assay type: biochemical; conditions: read-out: Activity Level (Syk HTRF assay IC50)
Assign IC50 to each entry below.

Ask | Note IC50 for the compound shown: Cc1n[nH]c2cc(Nc3nc4cccc(O[C@@H]5COC[C@@H]5O)n4n3)ccc12 (racemic) [Example 165]
Reply | 250 to 500 nM

Ask | Output measured IC50 for this item: NCCNc1cc(Nc2nc3cccc(-c4ccccc4)n3n2)ccn1 [compound 39]
Reply | 250 to 500 nM

Ask | Tell us which IC50 value is on record for CC1(C)C(=O)Nc2cc(Nc3nc4cccc(N5CC(O)C5)n4n3)ccc21 [Example 170]
Reply | 0.005 to 250 nM

Ask | Please report IC50 for the following compound: CC1(C)NC(=O)c2cc(Nc3nc4cccc(CC5CCOCC5)n4n3)ccc21 [compound 113]
Reply | 1000 to 10000 nM

Ask | Look up IC50 of N#Cc1ccc(-c2cccc3nc(Nc4ccccc4)nn23)cc1 [compound 76] and report it.
Reply | 1000 to 10000 nM

* * *

biological target: Syk (Homo sapiens, UniProt P43405); construct: purchased Carna Biosciences; assay: Syk HTRF assay; assay type: biochemical; conditions: activity levels A-D, read-out: Activity Level (IC50 in the Syk HTRF assay)
pIC50: −log10 of the molar value.
readout-type: pIC50

Ask | Annotate the compound "FC(F)(F)c1ccc(Nc2nc3cccc(CN4CCNCC4)n3n2)cc1" with its measured pIC50.
Reply | 6.60 to 11.30

Ask | Please list pIC50 recorded for the compound "O=C1NCc2ccc(Nc3nc4cccc(N[C@H]5CC[C@@H](O)CC5)n4n3)cc21"
Reply | 6.00 to 6.30

Ask | Dear colleague, please send me the reported pIC50 for "O=C1c2cc(Nc3nc4cccc(N[C@H]5CC[C@@H](O)CC5)n4n3)ccc2CN1CCO" when you can.
Reply | 5.00 to 6.00

Ask | Note down pIC50 recorded for "O[C@H]1CCCN(c2cccc3nc(Nc4ccc(C(F)(F)F)cc4)nn23)C1"
Reply | 6.30 to 6.60

Ask | Give the measured pIC50 for "OC1CCN(c2ccc(Nc3nc4cccc(N[C@H]5CC[C@@H](O)CC5)n4n3)cn2)CC1"
Reply | 6.60 to 11.30

Ask | Tell me pIC50 reported for "Oc1ccc(Nc2nc3cccc(N[C@H]4CC[C@@H](O)CC4)n3n2)cn1"
Reply | 5.00 to 6.00

Ask | Give the reported pIC50 for this compound. CC(C)C1CNC(=O)CN1Cc1cccc2nc(Nc3ccc(C(F)(F)F)cc3)nn12 (racemic)
Reply | 5.00 to 6.00

Ask | Let me know recorded pIC50 for "CNC(=O)c1ccc(Nc2nc3cccc(-c4cccnc4)n3n2)cc1" , thanks.
Reply | 6.00 to 6.30

Ask | Identify measured pIC50 associated with "Cc1n[nH]c2cc(Nc3nc4cccc(NCC5CCOCC5)n4n3)ccc12"
Reply | 6.30 to 6.60

Ask | Item "CNC(=O)c1ccc(Nc2nc3cccc(CC4CCNCC4)n3n2)cc1" : provide pIC50
Reply | 6.60 to 11.30

Ask | Give pIC50 for "NC(=O)c1cccc(Nc2nc3cccc(N[C@H]4CC[C@@H](O)CC4)n3n2)c1"
Reply | 6.30 to 6.60

Ask | Give the reported value of pIC50 for this record: "O[C@H]1CCCN(Cc2cccc3nc(Nc4ccc(C(F)(F)F)cc4)nn23)C1"
Reply | 5.00 to 6.00

Ask | Please look at this compound and report its pIC50: "FC(F)(F)c1ccc(Nc2nc3cccc(Cc4ccncc4)n3n2)cc1"
Reply | 5.00 to 6.00

Ask | Answer with reported pIC50 of OC1CCC[C@@H]1Nc1cccc2nc(Nc3ccc(C(F)(F)F)cc3)nn12 (stereo in doubt)
Reply | 6.60 to 11.30

Ask | For the compound C[C@]1(O)CC[C@H](Nc2cccc3nc(Nc4ccc(C(F)(F)F)cc4)nn23)CC1 [Example 383] , give its reported pIC50.
Reply | 6.00 to 6.30

Ask | Answer with the recorded pIC50 of "CNC(=O)c1ccc(Nc2nc3cccc(CCC4CCNCC4)n3n2)cc1" only.
Reply | 6.00 to 6.30

Ask | Look up pIC50 of "N#Cc1ccc(Nc2nc3cccc(N[C@H]4CC[C@@H](O)CC4)n3n2)cn1" and report it.
Reply | 5.00 to 6.00
